Recorded Ki values (AD brain-enriched PHF (Homo sapiens, UniProt P10636)) are given below.
Readout kind: Ki (nM)

Compound structure	Reading unit	Reported
Cn1c2ccncc2c2ccc(Nc3cccc(OC(F)(F)F)c3)nc21	nM	169
Cn1c2ccncc2c2ccc(Nc3ccc(F)c(N4CCOCC4)c3)nc21	nM	233
Cn1c2ccncc2c2ccc(Nc3ccc(OC(F)F)nc3)nc21	nM	188
Cn1c2ccncc2c2ccc(Nc3cccc(OCCF)c3)nc21	nM	26

====

# Tested on: Aβ plaques on AD brain section
# Experiment summary: Assay 1: displacement of Compound B on human AD brain sections (fluorescence)
# Assay type: binding
Collected Competition on AD brain section Aβ plaques (1 μM Compound B vs 250 μM compound) values appear next to each entry.
Readout kind: Competition on AD brain section Aβ plaques (1 μM Compound B vs 250 μM compound) (%)

Compound structure	Reported
Cn1c2ccncc2c2ccc(Nc3ccc(F)c(F)c3)nc21	0
Cn1c2ccncc2c2ccc(N3CCN(CCF)CC3)nc21	−1
Cn1c2ccncc2c2ccc(N3CCC(CCF)CC3)nc21	42
Cn1c2ccncc2c2ccc(N3CCC(CCOCCF)CC3)nc21	15
Cn1c2ccncc2c2ccc(Nc3cccc(OCCF)n3)nc21	−21
Cn1c2ccncc2c2ccc(Nc3cccc(N4CCOCC4)c3F)nc21	0
Cn1c2ccncc2c2ccc(N3CCC(OCCF)CC3)nc21	−8
Cn1c2ccncc2c2ccc(Nc3ccc(F)cc3N3CCOCC3)nc21	12
Cn1c2ccncc2c2ccc(Nc3cccc(N4CCOCC4)c3)nc21	32
Cn1c2ccncc2c2ccc(Nc3cccc(OCCOCCOCCF)c3)nc21	18
